Assay procedure: In vitro human microsomal stability assay
Format: in vitro ADME
Condition set: human, microsomes, 0.5 h, 0.5 μM, pH 7.4
Overview of reported HUMAN MICROSOMAL STABILITY (% REMAINING AFTER 30 MINUTES) across a group of compounds:

Exercise: // returns reported HUMAN MICROSOMAL STABILITY (% REMAINING AFTER 30 MINUTES) for input CC1(O)CC(c2cncc(C(F)(F)F)c2)(C(O)c2ccccn2)C1 (single isomer, unassigned) [Example 309]
Solution: >85%

Exercise: // returns reported HUMAN MICROSOMAL STABILITY (% REMAINING AFTER 30 MINUTES) for input OC(c1ccccn1)C1(C2CCCOC2)CCC1 (centres unmarked)
Solution: >85%

Exercise: // returns reported HUMAN MICROSOMAL STABILITY (% REMAINING AFTER 30 MINUTES) for input OC(C1CCCc2cccnc21)C1(c2cccc(OC(F)(F)F)c2)CCC1 (centres unmarked) [Example 187]
Solution: <0.01%

Exercise: // returns reported HUMAN MICROSOMAL STABILITY (% REMAINING AFTER 30 MINUTES) for input CC1(O)CC(c2ccc(C(F)(F)F)cc2)(C(O)c2ccccn2)C1 (single isomer, unassigned) [Example 233]
Solution: >85%

Exercise: // returns reported HUMAN MICROSOMAL STABILITY (% REMAINING AFTER 30 MINUTES) for input CN1CC(c2ccc(C(F)(F)F)cc2)(C(O)c2ccccn2)C1 (centres unmarked)
Solution: >85%

The origin of these recorded values is patent US8772499B2.
